system: Proteasome Macropain subunit MB1 (Homo sapiens, UniProt P28074)
Sequence (P28074 whole entry): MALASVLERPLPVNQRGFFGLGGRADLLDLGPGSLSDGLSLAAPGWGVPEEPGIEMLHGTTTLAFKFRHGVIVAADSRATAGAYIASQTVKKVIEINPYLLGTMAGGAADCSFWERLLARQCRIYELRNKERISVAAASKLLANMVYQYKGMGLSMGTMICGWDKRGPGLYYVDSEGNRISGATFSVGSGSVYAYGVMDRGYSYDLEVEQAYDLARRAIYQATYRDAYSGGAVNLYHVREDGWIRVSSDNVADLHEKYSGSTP
measurement protocol: Inhibition of chymotrypsin-like activity of human beta-5 subunit of 20S proteasome using Suc-LLVY-AMC as substrate by fluorometer analysis
condition parameters: read-out: IC50
pIC50: −log10 of the molar value.
quantity measured: pIC50

chemical string: CCCNC(=O)[C@@H](NC(=O)[C@H](CC(N)=O)NC(=O)Cc1cccc(Oc2ccccc2)c1)C(C)C
system: Proteasome Macropain subunit MB1 (Homo sapiens, UniProt P28074)
numeric value: 4.89
--
chemical string: COc1ccc(CNC(=O)[C@@H](NC(=O)[C@H](CCC(N)=O)NC(=O)Cc2cccc(Oc3ccccc3)c2)C(C)C)c(O)c1
system: Proteasome Macropain subunit MB1 (Homo sapiens, UniProt P28074)
numeric value: 5.79
--
chemical string: COc1ccc(CNC(=O)[C@@H](NC(=O)[C@H](CCCCNC(=O)OCc2ccccc2)NC(=O)Cc2cccc(Oc3ccccc3)c2)C(C)C)c(O)c1
system: Proteasome Macropain subunit MB1 (Homo sapiens, UniProt P28074)
numeric value: 4.93
--
chemical string: COC(=O)[C@@H](NC(=O)[C@@H](NC(=O)[C@H](CC(N)=O)NC(=O)Cc1cccc(Oc2ccccc2)c1)C(C)C)[C@H](C)O
system: Proteasome Macropain subunit MB1 (Homo sapiens, UniProt P28074)
numeric value: 6.54
--
chemical string: CC(C)[C@H](NC(=O)[C@H](CC(N)=O)NC(=O)Cc1cccc(Oc2ccccc2)c1)C(=O)N[C@H](C(=O)O)[C@H](C)O
system: Proteasome Macropain subunit MB1 (Homo sapiens, UniProt P28074)
numeric value: 4.86
--
chemical string: COc1ccc(CNC(=O)[C@@H](NC(=O)[C@H](CC(N)=O)NC(=O)Cc2cccc(Oc3ccccc3)c2)C(C)C)c(O)c1
system: Proteasome Macropain subunit MB1 (Homo sapiens, UniProt P28074)
numeric value: 6.18
--
chemical string: CC(C)[C@H](NC(=O)[C@H](CC(N)=O)NC(=O)Cc1cccc(Oc2ccccc2)c1)C(=O)N[C@H](C(=O)OCc1ccccc1)[C@H](C)O
system: Proteasome Macropain subunit MB1 (Homo sapiens, UniProt P28074)
numeric value: 6.04
--
chemical string: CC(C)[C@H](NC(=O)[C@H](CC(N)=O)NC(=O)Cc1cccc(Oc2ccccc2)c1)C(=O)OCc1ccccc1
system: Proteasome Macropain subunit MB1 (Homo sapiens, UniProt P28074)
numeric value: 4.76
--
chemical string: CC(C)[C@H](NC(=O)[C@H](CC(N)=O)NC(=O)Cc1cccc(Oc2ccccc2)c1)C(=O)NCCO
system: Proteasome Macropain subunit MB1 (Homo sapiens, UniProt P28074)
numeric value: 4.76
